The reported measurements were obtained from patent US5679828A.

# Tested on: HIV-1
# assayProcedure: HIV-1 replication in PHA-stimulated PBMCs (p24 antigen ELISA)
# Format: cell-based, HIV-1 (IIIB isolate)
# conditionSummary: Human immunodeficiency virus 1, PBMC; PHA-stimulated PBMCs; read-out: EC50
pEC50: −log10 of the molar value.
The entries below are paired with their reported pEC50.
readoutName: pEC50

>>> experimentalresult("CC(C)[C@@H]1CC[C@]2(C(=O)O)CC[C@]3(C)[C@H](CC[C@@H]4[C@@]5(C)CC[C@H](OC(=O)CC(C)(C)CC(=O)O)C(C)(C)[C@@H]5CC[C@]43C)[C@@H]12")
7.53
>>> experimentalresult("CC(C)[C@@H]1CC[C@]2(C(=O)O)CC[C@]3(C)[C@H](CC[C@@H]4[C@@]5(C)CC[C@H](OC(=O)CC(C)(C)C(=O)O)C(C)(C)[C@@H]5CC[C@]43C)[C@@H]12")
8.52
